Test system: IL-12p70
Experiment description: Cytokine release after LPS induction on human whole blood: IL-12p70
Type: cell-based
Run conditions: Homo sapiens, 18 h, read-out: Whole Blood: IL-12p70 IC50
pIC50: −log10 of the molar value.

[
  {
    "Molecule": "O=C(O)c1cc(NC(=O)c2cc(O)c(C(=O)Nc3ccccc3-c3nnn[nH]3)cc2O)ccc1O [Ic-001a-Tz/004a]",
    "Target desc": "IL-12p70",
    "pIC50": 4.91
  }
]

* * *

Test system: IL-13
Experiment description: Cytokine release after LPS induction on human whole blood: IL-13
Type: cell-based
Run conditions: Homo sapiens, read-out: IC50 IL-13

[
  {
    "Compound": "O=C(O)c1cc(NC(=O)c2cc(O)c(C(=O)Nc3ccccc3-c3nnn[nH]3)cc2O)ccc1O [Ic-001a-Tz/004a]",
    "IC50": "1500 nM"
  }
]
